Test system: SSTR2
Test: Cyclic AMP accumulation in intact cells (forskalin stimulated, adrenal binding protein method)
Type: cell-based
Settings: % intrinsic activity
Positions of bridges follow the written chain, without caps; N, C: chain ends. Non-standard residues stand in square brackets, D forms with d. Residues, ends and D or L forms follow the SMILES beside them. Phe(4-NO2) = N[C@@H](Cc1ccc([N+](=O)[O-])cc1)C(=O)O; dPhe(4-NO2) = N[C@H](Cc1ccc([N+](=O)[O-])cc1)C(=O)O; 2Nal = N[C@@H](Cc1ccc2ccccc2c1)C(=O)O; NMeA = CN[C@@H](C)C(=O)O
VALUE_KIND: % IA (%)
Respond with the bare value in %.

Below, 3 molecules whose answers are already recorded.
CC(C)[C@@H]1NC(=O)[C@H](CCCCN)NC(=O)[C@@H](Cc2c[nH]c3ccccc23)NC(=O)[C@H](Cc2ccc(O)cc2)NC(=O)[C@H](NC(=O)[C@H](N)Cc2ccc([N+](=O)[O-])cc2)CSSC[C@@H](C(=O)N[C@@H](Cc2ccc(O)cc2)C(N)=O)NC1=O (H-[dPhe(4-NO2)][dC]Y[dW]KVCY-NH2; disulfide 2-7) = 42
NCCCC[C@@H]1NC(=O)[C@@H](Cc2c[nH]c3ccccc23)NC(=O)[C@H](Cc2ccc(O)cc2)NC(=O)[C@H](NC(=O)[C@@H](N)Cc2ccc([N+](=O)[O-])cc2)CSSC[C@@H](C(=O)N[C@@H](Cc2ccc3ccccc3c2)C(N)=O)NC(=O)[C@H](CO)NC1=O (H-[Phe(4-NO2)][dC]Y[dW]KSC[2Nal]-NH2; disulfide 2-7) = 7
C[C@@H](O)[C@@H]1NC(=O)[C@H](CCCCN)NC(=O)[C@@H](Cc2c[nH]c3ccccc23)NC(=O)[C@H](Cc2ccc(O)cc2)NC(=O)[C@H](NC(=O)[C@@H](N)Cc2ccc(I)cc2)CSSC[C@@H](C(=O)N[C@@H](Cc2ccc(O)cc2)C(N)=O)NC1=O = -12

Query molecule follows.
[Q] Using the record for CC(C)[C@@H]1NC(=O)[C@H](CCCCN)NC(=O)[C@@H](Cc2c[nH]c3ccccc23)NC(=O)[C@H](Cc2ccc(O)cc2)NC(=O)[C@H](NC(=O)[C@@H](N)Cc2ccc([N+](=O)[O-])cc2)CSSC[C@@H](C(=O)N(C)[C@@H](C)C(N)=O)NC1=O (H-[Phe(4-NO2)][dC]Y[dW]KVC[NMeA]-NH2; disulfide 2-7) , report its % IA.
[A] 29
